Target: ERK3 kinase domain (Homo sapiens)
Construct: The kinase domain of ERK3 (M9-I327) was subcloned into pNIC28–Bsa4; His6 (N, cleaved yes); made in house; host or cells: E. coli (co-expressed with lambda phosphatase)
Sequence (Q16659 9-327): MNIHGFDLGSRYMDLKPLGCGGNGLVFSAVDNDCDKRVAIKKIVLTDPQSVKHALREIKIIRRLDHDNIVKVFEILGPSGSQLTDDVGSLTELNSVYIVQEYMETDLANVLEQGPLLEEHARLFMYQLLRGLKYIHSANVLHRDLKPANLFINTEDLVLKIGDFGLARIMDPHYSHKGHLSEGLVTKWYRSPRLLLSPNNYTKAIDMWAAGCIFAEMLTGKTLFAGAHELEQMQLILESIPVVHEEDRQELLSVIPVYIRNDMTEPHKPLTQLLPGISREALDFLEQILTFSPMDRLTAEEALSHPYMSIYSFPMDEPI
Experiment: Melting temperature assay (differential scanning fluorimetry, DSF)
Type: binding
Conditions: Table S3; DSF assay values shown for comparison; read-out: ΔTm ERK3
ΔTm at 10 µM vs 0.02 °C: at or above is Yes, below is No.

{"compound": "Nc1nc(Nc2ccc(S(N)(=O)=O)cc2)nn1C(=O)c1c(F)cccc1F [JNJ-7706621]", "assayed_system": "ERK3 kinase domain (Homo sapiens)", "assigned_category": "Yes"}
{"compound": "Cc1cc(Nc2cc(N3CCN(C)CC3)nc(/C=C/c3ccccc3)n2)n[nH]1 [ENMD-2076]", "assayed_system": "ERK3 kinase domain (Homo sapiens)", "assigned_category": "No"}
{"compound": "CCN1CCN(Cc2ccc(-c3cc4c(N[C@H](C)c5ccccc5)ncnc4[nH]3)cc2)CC1 [AEE788]", "assayed_system": "ERK3 kinase domain (Homo sapiens)", "assigned_category": "Yes"}
{"compound": "COc1cc2ncnc(Nc3cccc(Cl)c3)c2cc1OC [AG-1478]", "assayed_system": "ERK3 kinase domain (Homo sapiens)", "assigned_category": "Yes"}
{"compound": "Cc1ncc(-c2ccnc(Nc3ccc(S(C)(=O)=O)cc3)n2)n1C(C)C [AZD5438]", "assayed_system": "ERK3 kinase domain (Homo sapiens)", "assigned_category": "No"}
{"compound": "CN(c1ncccc1CNc1nc(Nc2ccc3c(c2)CC(=O)N3)ncc1C(F)(F)F)S(C)(=O)=O [PF-00562271]", "assayed_system": "ERK3 kinase domain (Homo sapiens)", "assigned_category": "No"}
{"compound": "Nc1cccc(-c2cc3c(Oc4cccc(O)c4)ncnc3[nH]2)c1 [TWS119]", "assayed_system": "ERK3 kinase domain (Homo sapiens)", "assigned_category": "Yes"}
{"compound": "NC(=O)c1cnc(N[C@@H]2CCCC[C@@H]2N)nc1Nc1cccc(-n2nccn2)c1 [PRT062607]", "assayed_system": "ERK3 kinase domain (Homo sapiens)", "assigned_category": "Yes"}
{"compound": "CC(C)(C)c1cnc(CSc2cnc(NC(=O)C3CCNCC3)s2)o1 [SNS-032]", "assayed_system": "ERK3 kinase domain (Homo sapiens)", "assigned_category": "Yes"}
{"compound": "Cc1cnc(Nc2ccc(N3CCN(C)CC3)cc2)nc1Nc1cccc(S(=O)(=O)NC(C)(C)C)c1 [TG101209]", "assayed_system": "ERK3 kinase domain (Homo sapiens)", "assigned_category": "Yes"}
{"compound": "O=C(Nc1cccc(Nc2ncc(Br)c(NCCc3cnc[nH]3)n2)c1)N1CCCC1 [BX-912]", "assayed_system": "ERK3 kinase domain (Homo sapiens)", "assigned_category": "No"}
{"compound": "COc1cc2ncnc(Nc3ccc(O)c(Br)c3)c2cc1OC [WHI-P154]", "assayed_system": "ERK3 kinase domain (Homo sapiens)", "assigned_category": "No"}
{"compound": "Oc1ccc2ccccc2c1SSc1c(O)ccc2ccccc12 [IPA-3]", "assayed_system": "ERK3 kinase domain (Homo sapiens)", "assigned_category": "No"}
{"compound": "Cc1nc(N)sc1-c1ccnc(Nc2ccc(N3CCOCC3)cc2)n1 [CYC116]", "assayed_system": "ERK3 kinase domain (Homo sapiens)", "assigned_category": "Yes"}
